biological target: Adenosine receptor A1 (Cavia porcellus, UniProt P47745); test: Inhibition of adenosine induced negative inotropic activity against guinea-pig atria (Adenosine A1 receptor) at 10 nM; format: functional
Sequence (P47745 whole entry): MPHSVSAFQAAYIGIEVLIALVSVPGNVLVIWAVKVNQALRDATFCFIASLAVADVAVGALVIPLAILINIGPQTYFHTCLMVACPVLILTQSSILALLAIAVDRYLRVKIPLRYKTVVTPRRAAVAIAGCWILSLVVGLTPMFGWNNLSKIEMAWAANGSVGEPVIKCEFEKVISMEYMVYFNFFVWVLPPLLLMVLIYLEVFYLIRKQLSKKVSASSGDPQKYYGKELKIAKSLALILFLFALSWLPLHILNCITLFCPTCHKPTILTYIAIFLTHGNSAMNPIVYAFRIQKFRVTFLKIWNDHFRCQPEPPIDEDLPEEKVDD
pIC50: −log10 of the molar value.

[
  {
    "compound": "CCC1CCCCN1C(=O)/C=C/c1c(-c2ccccc2)nc2sc(C)nn12 (stereo unspecified)",
    "pIC50": 7.04
  }
]

----------
test system: Rattus norvegicus; test: Diuretic activity in rat was determined by measuring urine volume at a dose of 10 mg/kg upon oral administration; format: functional
Assign labels as follows, please: MET for Urine volume (% of control) below 200%; NOT MET for Urine volume (% of control) equal to or exceeding 200%.

[
  {
    "molecule": "CCC1CCCCN1C(=O)/C=C/c1c(-c2ccccc2)nc2sc(C)nn12 (stereo unspecified)",
    "label": "NOT MET"
  },
  {
    "molecule": "CC[C@H]1CCCCN1C(=O)/C=C/c1c(-c2ccccc2)nn2ccccc12",
    "label": "MET"
  },
  {
    "molecule": "O=C(/C=C/c1c(-c2ccccc2)nn2ccccc12)N1CCCC[C@@H]1CCO",
    "label": "MET"
  },
  {
    "molecule": "O=C(/C=C/c1c(-c2ccccc2)nn2ccccc12)N1CCCC[C@H]1CCO",
    "label": "NOT MET"
  }
]

----------
molecular target: Adenosine receptor A1 (Cavia porcellus, UniProt P47745); experiment: Inhibition of adenosine induced negative inotropic activity against guinea-pig atria (Adenosine A1 receptor); assay type: functional
pIC50: −log10 of the molar value.
measurement.name: pIC50

[
  {
    "smiles.entry": "O=C(/C=C/c1c(-c2ccccc2)nn2ccccc12)N1CCCC[C@H]1CCO",
    "experimental.value": 9.25
  }
]

----------
Biological target: Adenosine receptor A1 (Rattus norvegicus)
Sequence (P25099 whole entry): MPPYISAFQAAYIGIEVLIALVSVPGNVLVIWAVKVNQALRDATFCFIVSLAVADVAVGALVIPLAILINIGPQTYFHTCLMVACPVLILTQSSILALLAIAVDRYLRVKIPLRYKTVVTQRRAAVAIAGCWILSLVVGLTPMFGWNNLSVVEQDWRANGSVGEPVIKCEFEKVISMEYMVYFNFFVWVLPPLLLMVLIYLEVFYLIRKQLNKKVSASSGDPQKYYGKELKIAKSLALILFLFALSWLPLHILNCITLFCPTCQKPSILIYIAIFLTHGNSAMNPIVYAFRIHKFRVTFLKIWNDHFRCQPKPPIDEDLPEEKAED
Assay: Inhibition of [3H]CHA binding against Adenosine A1 receptors of rat cortical membranes
pIC50: −log10 of the molar value.

[
  {
    "smiles.entry": "O=C(/C=C/c1c(-c2ccccc2)nn2ccccc12)N1CCCC[C@H]1CCO",
    "pIC50": 7.76
  },
  {
    "smiles.entry": "O=C(/C=C/c1c(-c2ccccc2)nn2ccccc12)N1CCCC[C@@H]1CCO",
    "pIC50": 5.00
  }
]

----------
system: Rattus norvegicus; experiment: Diuretic activity in rat was determined by measuring sodium excretion at a dose of 10 mg/kg upon oral administration; format: functional, Urine
Sodium excretion (% of control) strictly under 200% means rule met; at 200% or over means rule not met.

[
  {
    "molecule": "CC[C@H]1CCCCN1C(=O)/C=C/c1c(-c2ccccc2)nn2ccccc12",
    "label": "rule met"
  },
  {
    "molecule": "CC[C@@H]1CCCCN1C(=O)/C=C/c1c(-c2ccccc2)nn2ccccc12",
    "label": "rule not met"
  },
  {
    "molecule": "O=C(/C=C/c1c(-c2ccccc2)nn2ccccc12)N1CCCCC1",
    "label": "rule met"
  },
  {
    "molecule": "O=C(/C=C/c1c(-c2ccccc2)nn2ccccc12)N1CCCC[C@H]1CCO",
    "label": "rule not met"
  },
  {
    "molecule": "CCC1CCCCN1C(=O)/C=C/c1c(-c2ccccc2)nc2sc(C)nn12 (stereo unspecified)",
    "label": "rule not met"
  },
  {
    "molecule": "O=C(/C=C/c1c(-c2ccccc2)nn2ccccc12)N1CCCC[C@@H]1CCO",
    "label": "rule met"
  }
]
